- assay_summary: Primary qHTS for delayed death inhibitors of the malarial parasite plastid, 96 hour incubation; further: potency means the concentration at half of the fitted maximal effect
- condition_details: P. falciparum luciferase reporter growth; series mostly up to 28.7 µM
Hit rate of the full screen: of about 320,000 compounds, about 22,000 (6.9%) were called active. Not shown: some 27% with an inconclusive outcome. This excerpt belongs to a sample that is enriched for actives.
property_name: Potency

// below: answered molecules
{"molecule": "COc1cccc(CNS(=O)(=O)c2ccc3c(c2)CC(C)N3C(=O)C2CCC2)c1 (configuration not stated)", "value_observed": "inactive"}
{"molecule": "CCOC(=O)c1c(NC(=O)Cn2nc(C(F)(F)F)cc2C)sc2c1CCC2", "value_observed": "inactive"}
{"molecule": "CCOC(=O)c1c(NC(=S)Nc2ccccc2)sc2c1CCN(C)C2", "value_observed": "inactive"}
{"molecule": "CCC(=O)N(Cc1ccccc1)c1ccccn1", "value_observed": "inactive"}
{"molecule": "CCOc1cccc(NC(=O)C2CCCN(S(=O)(=O)c3ccc(OC)cc3)C2)c1 (configuration not stated)", "value_observed": "inactive"}
{"molecule": "COc1ccc(NC(=O)CC2C(=O)NC3CCCCC3N2C(=O)c2ccc(F)cc2)cc1 (configuration not stated)", "value_observed": "inactive"}
{"molecule": "CCCCn1c(N)c(N(CCOC)C(=O)c2cccc(S(=O)(=O)N(C)c3ccccc3)c2)c(=O)[nH]c1=O", "value_observed": "inactive"}
{"molecule": "CCN(Cc1ccncc1)C(=O)CCc1ccccc1", "value_observed": "13.1 µM (active)"}
{"molecule": "CC(=O)Nc1ccc(/C=C/C(=O)c2ccccc2)cc1", "value_observed": "inactive"}
{"molecule": "O=C(NCCc1ccccc1)C1CC1", "value_observed": "inactive"}

Incoming: Recorded Potency for O=C(Nc1ccccc1Cl)Nc1cccc2cccnc12 , please?
Outgoing: inactive

Incoming: Recorded Potency for O=C(O)CCC(=O)N(Cc1ccccc1)Cc1ccccc1 , please?
Outgoing: inactive

Incoming: Recorded Potency for O=C(C1CCC1)N1CCN(S(=O)(=O)c2ccc([N+](=O)[O-])cc2)CC1 , please?
Outgoing: 10.4 µM (active)

Incoming: Recorded Potency for CCOC(=O)c1c(NC(=O)NC(C)(C)C)sc2c1CCN(C)C2 , please?
Outgoing: 4.15 µM (active)

Incoming: Recorded Potency for O=C(C1CCCN(S(=O)(=O)c2ccc([N+](=O)[O-])cc2)C1)N1CCCCC1 (configuration not stated) , please?
Outgoing: inactive
